assay: Selectivity index, ratio of IC50 for cytotoxicity against African green monkey Vero cells to IC50 for antiparasitic activity against Trypanosoma brucei assessed as parasite growth inhibition; assay type: toxicity, cell-based; conditions: read-out: Ratio IC50
A collection of compounds and their measured selectivity ratio
measured-property: selectivity ratio

>>> recorded_result("CC(=O)O[C@H]1CC[C@@]2(C)C(=CC[C@H]3[C@@H]4CC[C@H]([C@H](C)NCc5cn(CCCc6ccccc6)nn5)[C@@]4(C)CC[C@@H]32)C1")
"> 44.7"
>>> recorded_result("CC(=O)O[C@H]1CC[C@@]2(C)C(=CC[C@H]3[C@@H]4CC[C@H]([C@H](C)NCc5cn(C/C=C(\\C)CCC=C(C)C)nn5)[C@@]4(C)CC[C@@H]32)C1")
"> 13.8"
>>> recorded_result("CC(C)=CCC/C(C)=C/Cn1cc(CNC[C@](C)(O)[C@H]2CC[C@H]3[C@@H]4CC=C5C[C@@H](O)CC[C@]5(C)[C@H]4CC[C@@]32C)nn1")
"> 13.6"
>>> recorded_result("C[C@@H](NCc1cn(Cc2ccccc2)nn1)[C@H]1CC[C@H]2[C@@H]3CC=C4C[C@@H](O)CC[C@]4(C)[C@H]3CC[C@]12C")
"> 5.78"
>>> recorded_result("CC(C)=CCC/C(C)=C/Cn1cc(CN[C@H](C)[C@H]2CC[C@H]3[C@@H]4CC=C5C[C@@H](O)CC[C@]5(C)[C@H]4CC[C@]23C)nn1")
"> 14.2"
>>> recorded_result("CC1CS(=O)(=O)CCN1/N=C/c1ccc([N+](=O)[O-])o1 (configuration not stated) [NIFURTIMOX]")
18.8
>>> recorded_result("C#CCNC[C@](C)(O)[C@H]1CC[C@H]2[C@@H]3CC=C4C[C@@H](O)CC[C@]4(C)[C@H]3CC[C@@]21C")
"> 6.95"

###

A collection of compounds and their measured selectivity ratio
assay: Selectivity index, ratio of IC50 for cytotoxicity against African green monkey Vero cells to IC50 for antiparasitic activity against Trypanosoma brucei assessed as parasite growth inhibition; format: toxicity, cell-based; conditions: read-out: Ratio IC50
measured-property: selectivity ratio

>>> recorded_result("C#CCN[C@@H](C)[C@H]1CC[C@H]2[C@@H]3CC=C4C[C@@H](OC(C)=O)CC[C@]4(C)[C@H]3CC[C@]12C")
"> 6.44"
>>> recorded_result("CC(=O)O[C@H]1CC[C@@]2(C)C(=CC[C@H]3[C@@H]4CC[C@H]([C@@H](C)NCc5cn(CCCc6ccccc6)nn5)[C@@]4(C)CC[C@@H]32)C1")
"> 44.7"
>>> recorded_result("CC(=O)O[C@H]1CC[C@@]2(C)C(=CC[C@H]3[C@@H]4CC[C@H]([C@H](C)NCc5cn(Cc6ccccc6)nn5)[C@@]4(C)CC[C@@H]32)C1")
"> 47.1"
>>> recorded_result("CCOC(=O)Cn1cc(CN[C@H](C)[C@H]2CC[C@H]3[C@@H]4CC=C5C[C@@H](OC(C)=O)CC[C@]5(C)[C@H]4CC[C@]23C)nn1")
"> 1.46"
>>> recorded_result("C[C@@H](NCc1cn(CCCc2ccccc2)nn1)[C@H]1CC[C@H]2[C@@H]3CC=C4C[C@@H](O)CC[C@]4(C)[C@H]3CC[C@]12C")
"> 5.18"
>>> recorded_result("COC(=O)c1cn(C[C@](C)(O)[C@H]2CC[C@H]3[C@@H]4CC=C5C[C@@H](O)CC[C@]5(C)[C@H]4CC[C@@]32C)nn1")
"> 1.28"
